- System: CFU-GM (granulocyte/monocyte progenitors)
- METHOD_NOTES: Colony forming assay, bone marrow CD34+ cells in MethoCult
- Format: cell-based, human
- CONDITION_NOTES: Homo sapiens, CFU-GM; CD34+ cells from four healthy donors; Compound 1 in MethoCult; read-out: IC50, inhibition of granulo-monocytic progenitors (CFU-GM)
METRIC_NAME: IC50

{"COMPOUND": "O=C1CCC(N2Cc3cc(CNC(=O)C(F)(F)c4ccc(Cl)cc4)ccc3C2=O)C(=O)N1 (stereo not shown)", "METRIC_NAME": "IC50", "ASSAY_RESULT": "82 to 135 nM"}

====

- Test system: ML-2
- METHOD_NOTES: IncuCyte Kinetic Caspase-3/7 Apoptosis Assay
- Format: cell-based
- CONDITION_NOTES: Homo sapiens, 48 hr, read-out: Compound 1-induced Apoptosis EC50
pEC50: −log10 of the molar value.
METRIC_NAME: pEC50

{"MOLECULE": "O=C1CCC(N2Cc3cc(CNC(=O)C(F)(F)c4ccc(Cl)cc4)ccc3C2=O)C(=O)N1 (stereo not shown) [Compound 1]", "MEASUREMENT_TARGET": "ML-2", "METRIC_NAME": "pEC50", "ASSAY_RESULT": 7.51}

From: patent US11590117B2
